So I've got a bunch of compounds here, and I need their pKi values.
molecular target: Peroxisome proliferator-activated receptor gamma (Homo sapiens, UniProt P37231); test: Binding affinity against peroxisome proliferator activated receptor gamma (PPAR-gamma)
Sequence (P37231 whole entry): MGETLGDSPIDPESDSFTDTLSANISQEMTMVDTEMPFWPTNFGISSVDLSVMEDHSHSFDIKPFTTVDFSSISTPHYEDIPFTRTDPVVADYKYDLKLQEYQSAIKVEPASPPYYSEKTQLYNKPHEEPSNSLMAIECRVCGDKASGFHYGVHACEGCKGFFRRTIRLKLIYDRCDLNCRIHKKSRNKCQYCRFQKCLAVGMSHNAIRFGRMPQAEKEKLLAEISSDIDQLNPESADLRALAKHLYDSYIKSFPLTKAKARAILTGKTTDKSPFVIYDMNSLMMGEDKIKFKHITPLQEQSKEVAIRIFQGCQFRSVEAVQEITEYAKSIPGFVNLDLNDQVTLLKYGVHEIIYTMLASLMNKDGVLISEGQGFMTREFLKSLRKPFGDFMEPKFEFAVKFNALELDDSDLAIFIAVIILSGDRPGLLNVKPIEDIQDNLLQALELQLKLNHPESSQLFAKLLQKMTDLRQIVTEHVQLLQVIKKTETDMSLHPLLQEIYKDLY
Numbers only, as −log10 of the molar value.

compound: CN(CCOc1ccc(C[C@H](Nc2ccccc2C(=O)C2CCCCC2)C(=O)O)cc1)c1nc2ccccc2o1
target desc: Peroxisome proliferator-activated receptor gamma (Homo sapiens, UniProt P37231)
pKi: 8.39
//
compound: CN(CCOc1ccc(CC(Nc2ccccc2C(=O)c2ccccc2C(F)(F)F)C(=O)O)cc1)c1nc2ccccc2o1 (centres undefined)
target desc: Peroxisome proliferator-activated receptor gamma (Homo sapiens, UniProt P37231)
pKi: 8.57
//
compound: CN(CCOc1ccc(CC(Nc2ccccc2C(=O)c2ccc(C(F)(F)F)cc2)C(=O)O)cc1)c1nc2ccccc2o1 (centres undefined)
target desc: Peroxisome proliferator-activated receptor gamma (Homo sapiens, UniProt P37231)
pKi: 8.29

Look up pKi for the entries below, preserving their order.
1. COc1cccc(C(=O)c2ccccc2NC(Cc2ccc(OCCN(C)c3nc4ccccc4o3)cc2)C(=O)O)c1 (centres undefined)
2. CN(CCOc1ccc(CC(Nc2ccccc2C(=O)C2CCCC2)C(=O)O)cc1)c1nc2ccccc2o1 (centres undefined)
3. Cc1oc(-c2ccccc2)nc1CCOc1ccc(CC(Nc2ccccc2C(=O)OC(C)C)C(=O)O)cc1 (centres undefined)

8.64
8.19
9.01

====

target: Peroxisome proliferator-activated receptor gamma (Homo sapiens, UniProt P37231); experiment: Binding affinity against peroxisome proliferator activated receptor gamma (PPAR-gamma)
So I've got a bunch of compounds here, and I need their Ki values.
One number for each entry, in nM.

compound: CN(CCOc1ccc(CC(Nc2ccncc2C(=O)c2ccccc2)C(=O)O)cc1)c1nc2ccccc2o1 (stereo not drawn)
measured metric: Ki
quantity unit: nM
recorded value: 155
//
compound: Cc1ccc(C(=O)c2ccccc2NC(Cc2ccc(OCCN(C)c3nc4ccccc4o3)cc2)C(=O)O)cc1 (stereo not drawn)
measured metric: Ki
quantity unit: nM
recorded value: 2.82
//
compound: CN(CCOc1ccc(CC(Nc2ccc(Cl)cc2C(=O)c2ccccc2)C(=O)O)cc1)c1nc2ccccc2o1 (stereo not drawn)
measured metric: Ki
quantity unit: nM
recorded value: 8.71

Look up Ki for the entries below, preserving their order.
1. CCCOC(=O)c1ccccc1NC(Cc1ccc(OCCc2nc(-c3ccccc3)oc2C)cc1)C(=O)O (stereo not drawn)
2. CN(CCOc1ccc(CC(Nc2ccccc2C(=O)c2ccc(OCc3ccccc3)cc2)C(=O)O)cc1)c1nc2ccccc2o1 (stereo not drawn)
3. CN(CCOc1ccc(C[C@@H](Nc2ccccc2C(=O)C2CCCCC2)C(=O)O)cc1)c1nc2ccccc2o1
4. Cc1oc(-c2ccccc2)nc1CCOc1ccc(CC(Nc2ccccc2C(=O)c2ccc(CN(C)C)cc2)C(=O)O)cc1 (stereo not drawn)

1. 2.4
2. 66.1
3. 1550
4. 15.5
